System: ANGPTL3 Protein
Test: PHH free uptake, inhibition of ANGPTL3, ELISA of supernatant
Type: cell-based
Conditions: primary human hepatocytes, 72 hours
Give measured IC50 for each item. Keep answers brief.
Answers are plain numbers, in nM.

| SUBSTANCE | PROPERTY_NAME | UNIT_SPEC | VAL |
| --- | --- | --- | --- |
| 2002-018-001: GalNAc-conjugated modified ANGPTL3 siRNA, sense SEQ ID NO 39, antisense SEQ ID NO 13 (sense CAUAGUGAAGCAAUCUAAU; antisense AUUAGAUUGCUUCACUAUGGA; GalNAc conjugated, chemically modified, pattern not given here) [Duplex 2002-018-001] | IC50 | nM | 1.9 |

Fill in IC50 for each of the 3 substances listed.
1. 2008-011-001: GalNAc-conjugated modified ANGPTL3 siRNA, sense SEQ ID NO 40, antisense SEQ ID NO 28 (sense GAGAAGAACUACAUAUAAA; antisense UUUAUAUGUAGUUCUUCUCAG; GalNAc conjugated, chemically modified, pattern not given here) [Duplex 2008-011-001]
2. 2002-034-001: GalNAc-conjugated modified ANGPTL3 siRNA, sense SEQ ID NO 38, antisense SEQ ID NO 13 (sense CAUAGUGAAGCAAUCUAAU; antisense AUUAGAUUGCUUCACUAUGGA; GalNAc conjugated, chemically modified, pattern not given here) [Duplex 2002-034-001]
3. 2002-018-002: GalNAc-conjugated modified ANGPTL3 siRNA, sense SEQ ID NO 34, antisense SEQ ID NO 13 (sense CAUAGUGAAGCAAUCUAAU; antisense AUUAGAUUGCUUCACUAUGGA; GalNAc conjugated, chemically modified, pattern not given here) [Duplex 2002-018-002]

A.
2.6
1.38
0.96

====

Give measured Average Inhibition in PCH % for each item. Keep answers brief.
Test system: ANGPTL3 Protein
Assay: PCH free uptake, inhibition of ANGPTL3, ELISA of supernatant
Assay type: cell-based
Settings: 1nM, primary cynomolgus monkey hepatocytes, 72 hours
Text: PCH cells were resuscitated using 10% FBS InvitroGRO™ HT Medium, and subsequently, the cell density was adjusted to 3×10^5 cells/mL using 10% FBS InvitroGRO™ CP Medium. […] Data Analysis: Four Parameter Logistic method. This method constructs a standard curve by plotting, with the y-axis as the average absorbance of the standards and the x-axis as the concentration, drawing a best-fit curve through the points on the graph. […]
Numbers only, in %.

As a guide, the following entries are already answered.
| SUBSTANCE | Average Inhibition in PCH % / % |
| --- | --- |
| 2008-019-002: GalNAc-conjugated modified ANGPTL3 siRNA, sense SEQ ID NO 36, antisense SEQ ID NO 28 (sense GAGAAGAACUACAUAUAAA; antisense UUUAUAUGUAGUUCUUCUCAG; GalNAc conjugated, chemically modified, pattern not given here) [Duplex 2008-019-002] | 52.37 |
| 2008-018-001: GalNAc-conjugated modified ANGPTL3 siRNA, sense SEQ ID NO 41, antisense SEQ ID NO 27 (sense GAGAAGAACUACAUAUAAA; antisense UUUAUAUGUAGUUCUUCUCAG; GalNAc conjugated, chemically modified, pattern not given here) [Duplex 2008-018-001] | 59.56 |

Kindly review the next substance as well.
Q. Average Inhibition in PCH % lookup needed for 2008-011-002: GalNAc-conjugated modified ANGPTL3 siRNA, sense SEQ ID NO 35, antisense SEQ ID NO 28 (sense GAGAAGAACUACAUAUAAA; antisense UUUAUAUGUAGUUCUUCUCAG; GalNAc conjugated, chemically modified, pattern not given here) [Duplex 2008-011-002] , thanks.
A. 54.65

====

Give measured Average Inhibition in PCH % for each item. Keep answers brief.
System: ANGPTL3 Protein
Assay: PCH free uptake, inhibition of ANGPTL3, ELISA of supernatant
Type: cell-based
Conditions: 5nM, primary cynomolgus monkey hepatocytes, 72 hours
Numbers only, in %.

As a guide, the following entries are already answered.
| SUBSTANCE | MEASURED_TARGET | Average Inhibition in PCH % [%] |
| --- | --- | --- |
| 2008-010-001: GalNAc-conjugated modified ANGPTL3 siRNA, sense SEQ ID NO 40 (3'-YHZY12001), antisense SEQ ID NO 27 (sense GAGAAGAACUACAUAUAAA; antisense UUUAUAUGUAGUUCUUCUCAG; GalNAc conjugate YHZY12001 at sense 3', chemistry not fully specified) [Duplex 2008-010-001] | ANGPTL3 Protein | 74.73 |
| 2002-033-001: GalNAc-conjugated modified ANGPTL3 siRNA, sense SEQ ID NO 38, antisense SEQ ID NO 12 (sense CAUAGUGAAGCAAUCUAAU; antisense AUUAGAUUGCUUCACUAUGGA; GalNAc conjugated, chemically modified, pattern not given here) [Duplex 2002-033-001] | ANGPTL3 Protein | 67.45 |
| 2008-035-001: GalNAc-conjugated modified ANGPTL3 siRNA, sense SEQ ID NO 42, antisense SEQ ID NO 28 (sense GAGAAGAACUACAUAUAAA; antisense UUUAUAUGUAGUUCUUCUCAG; GalNAc conjugated, chemically modified, pattern not given here) [Duplex 2008-035-001] | ANGPTL3 Protein | 63.23 |

Kindly review the next substance as well.
Q. // lookup Average Inhibition in PCH % | system=ANGPTL3 Protein | key= ARO-05488-003-NAG37: GalNAc-conjugated comparator ANGPTL3 siRNA, sense SEQ ID NO 44, antisense SEQ ID NO 45 (sense GCUCAACAUAUUUGAUCAGUA; antisense UACUGAUCAAAUAUGUUGAGC; GalNAc (NAG37) conjugate, chemistry not fully specified) [reference compound]
A. 49.83

====

Test system: ANGPTL3 Protein
Assay: PCH free uptake, inhibition of ANGPTL3, ELISA of supernatant
Format: cell-based
Details: 1nM, primary cynomolgus monkey hepatocytes, 72 hours
Give measured Average Inhibition in PCH % for each item. Keep answers brief.

As a guide, the following entries are already answered.
| SUBSTANCE | Average Inhibition in PCH % |
| --- | --- |
| 2002-033-001: GalNAc-conjugated modified ANGPTL3 siRNA, sense SEQ ID NO 38, antisense SEQ ID NO 12 (sense CAUAGUGAAGCAAUCUAAU; antisense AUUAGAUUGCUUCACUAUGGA; GalNAc conjugated, chemically modified, pattern not given here) [Duplex 2002-033-001] | 53.11% |
| 2002-034-002: GalNAc-conjugated modified ANGPTL3 siRNA, sense SEQ ID NO 33, antisense SEQ ID NO 13 (sense CAUAGUGAAGCAAUCUAAU; antisense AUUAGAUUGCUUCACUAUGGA; GalNAc conjugated, chemically modified, pattern not given here) [Duplex 2002-034-002] | 45.42% |
| 2008-010-001: GalNAc-conjugated modified ANGPTL3 siRNA, sense SEQ ID NO 40 (3'-YHZY12001), antisense SEQ ID NO 27 (sense GAGAAGAACUACAUAUAAA; antisense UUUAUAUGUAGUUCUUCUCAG; GalNAc conjugate YHZY12001 at sense 3', chemistry not fully specified) [Duplex 2008-010-001] | 62.75% |
| 2008-011-001: GalNAc-conjugated modified ANGPTL3 siRNA, sense SEQ ID NO 40, antisense SEQ ID NO 28 (sense GAGAAGAACUACAUAUAAA; antisense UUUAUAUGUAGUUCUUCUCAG; GalNAc conjugated, chemically modified, pattern not given here) [Duplex 2008-011-001] | 57.51% |

Fill in Average Inhibition in PCH % for each of the 2 substances listed.
1. 2002-034-001: GalNAc-conjugated modified ANGPTL3 siRNA, sense SEQ ID NO 38, antisense SEQ ID NO 13 (sense CAUAGUGAAGCAAUCUAAU; antisense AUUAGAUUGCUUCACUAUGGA; GalNAc conjugated, chemically modified, pattern not given here) [Duplex 2002-034-001]
2. 2008-019-001: GalNAc-conjugated modified ANGPTL3 siRNA, sense SEQ ID NO 41, antisense SEQ ID NO 28 (sense GAGAAGAACUACAUAUAAA; antisense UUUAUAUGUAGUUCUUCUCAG; GalNAc conjugated, chemically modified, pattern not given here) [Duplex 2008-019-001]

A.
50.50%
58.78%

====

Tested on: ANGPTL3 Protein
Test: PHH free uptake, inhibition of ANGPTL3, ELISA of supernatant
Type: cell-based
Conditions: primary human hepatocytes, 72 hours
PROPERTY_NAME: IC50 (nM)
One number for each entry, in nM.

As a guide, the following entries are already answered.
| SUBSTANCE | VAL |
| --- | --- |
| 2008-018-001: GalNAc-conjugated modified ANGPTL3 siRNA, sense SEQ ID NO 41, antisense SEQ ID NO 27 (sense GAGAAGAACUACAUAUAAA; antisense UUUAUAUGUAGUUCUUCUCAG; GalNAc conjugated, chemically modified, pattern not given here) [Duplex 2008-018-001] | 2.34 |
| 2008-010-002: GalNAc-conjugated modified ANGPTL3 siRNA, sense SEQ ID NO 35, antisense SEQ ID NO 27 (sense GAGAAGAACUACAUAUAAA; antisense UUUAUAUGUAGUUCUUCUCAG; GalNAc conjugated, chemically modified, pattern not given here) [Duplex 2008-010-002] | 0.98 |

Q. // lookup IC50 | system=ANGPTL3 Protein | key= 2002-033-002: GalNAc-conjugated modified ANGPTL3 siRNA, sense SEQ ID NO 33, antisense SEQ ID NO 12 (sense CAUAGUGAAGCAAUCUAAU; antisense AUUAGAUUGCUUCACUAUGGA; GalNAc conjugated, chemically modified, pattern not given here) [Duplex 2002-033-002]
A. 0.84
